# testedOn: Adenosine receptor A1 (Bos taurus, UniProt P28190)
# Sequence (P28190 whole entry): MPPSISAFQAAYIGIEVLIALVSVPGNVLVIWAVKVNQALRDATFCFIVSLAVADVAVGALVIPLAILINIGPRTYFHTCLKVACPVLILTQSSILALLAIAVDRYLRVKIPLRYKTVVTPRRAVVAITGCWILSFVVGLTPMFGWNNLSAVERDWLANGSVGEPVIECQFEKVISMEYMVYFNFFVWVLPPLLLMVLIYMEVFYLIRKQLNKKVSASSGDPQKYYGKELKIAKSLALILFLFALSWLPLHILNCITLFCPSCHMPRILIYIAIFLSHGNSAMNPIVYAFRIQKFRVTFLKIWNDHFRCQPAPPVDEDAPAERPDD
# testMethodNotes: Intrinsic activity towards Adenosine A1 receptor as displacement of [3H]DPCPX from bovine cortical membranes without GTP
Can you tell me Ki for the items I'm about to list?

Recorded Ki, per entry:
O=c1c(-c2ccccc2)nnc2n(Cc3ccccc3)c3ccccc3n12	240 nM
Cn1c2ccccc2n2c(=O)c(-c3ccccc3)nnc12	93.1 nM
O=c1c(-c2ccccc2)nnc2n(-c3ccccc3)c3ccccc3n12	24.7 nM

Next, consider the following molecule.
Asked: Adenosine receptor A1 (Bos taurus, UniProt P28190) / Ki / C[C@H](Cc1ccccc1)Nc1ncnc2c1ncn2[C@@H]1O[C@H](CO)[C@@H](O)[C@H]1O [(R)-PIA] : value?
Given back: 4.2 nM
